assay: yeast display, Sf9 membrane polyspecificity reagent, FACS + sequencing; frameworks hold sequencing errors
Measure: polyreactivity (PSR sort gate)

Example results:
- Biosequence: "QVQLVESGGGLVQAGGSLRIICAASGTTFVYNDMGWYRQAPGKEGELVAGITTSGGSTYYADSVKGRFTISRDNAKNTVYLQRNSLKPEDTAVYYWAAPAFSAWLEMDYWGQGTQVTVSS"
  polyreactivity (PSR sort gate): "low polyreactivity"
- Biosequence: "QVQLVESGGGLVQAGGSLRLSCAASGIIFGSYAMGWYRQAPGKERELVAGISRRGDSTYYADSVKGRFTISRDNAKNTVYLQMNSLNPEDTAVYYCAADRYLYFYWWPHVGGSPTYGYWGQGTQVTVSS"
  polyreactivity (PSR sort gate): "high polyreactivity"
- Biosequence: "QVQLVESGGGLVQAGGSLRLSCAASGSTFYVYAMGWYRQAPGKERELVAAITTGGSTYYADSVKGRFTISRDNAKNTVYLQMNSLKPEDTAVYYCAADDPDPYDVPSYDYWGHGTQVTVSS"
  polyreactivity (PSR sort gate): "low polyreactivity"
- Biosequence: "QVQLVESGGGLVQAGGSLRLSCAASGRIFNYNAMGWYRQAPGKERELVAAITSSGDSTNYADSVKGRFTISRDNAKNTVYLQMNSLKPEDTAVYYCNASSPYDYDWGQGTQVTVSS"
  polyreactivity (PSR sort gate): "low polyreactivity"

What value of measured polyreactivity (PSR sort gate) is listed for QVQLVESGGGLVQAGGSLRLSCAASGFIFKINAMGWYRQAPGKERELVAAINWTGGNTYYADSVKGRFTISRDNAKNTVYLQMNSLKPEDTAVYYCAAEFDVGWTWDYYWGQGTQVTVSS ?
high polyreactivity

Same question for QVQLVESGGGLVQAGGSLRLSCAASGRTFRSNAMGWYRQAPGKERELVAAIRNSDGSTNYADSVKGRFTISRDNAKNTVYLQMNSLKPEDTAVYYCAASSTVGRITRILYYYWGQGTQVTVSS please.
high polyreactivity

What about this sequence? QVQHVESGGGLVQAGGSLRLSCAASGSIFTGNAMGWYRQAPGKERELVAAISSSGGSTYYADSVKGRFTISRDNAKNTVYLQMNSLKPEDTAVYYCAAYNYFLQYDYWGQGTQVTVSS
low polyreactivity

Next up: QVQLVESGGGLVQAGGSLRLSCAASGLTFAYNTMGWYRQAPGKEREFVASISSSGGNTYYADAVKGRFTISRDNAKNTVYLQMNSLKPEDTAVYYCAAKKKYHYFASYKRFEYWGQGTQVTVSS
low polyreactivity

Queued: QVQLVESGGGLVQAGGSLRLSSAASGRIFHPYAMGWYRPAPGQERELVAAITNSGGITYADSVKGRFTISRGNAKNTVYLQMNSLKPEDTAVYYCNTATNRFHYKYRKPYDYWGQGTQVTVSS
low polyreactivity

###

test: yeast display, Sf9 membrane polyspecificity reagent, FACS + sequencing; frameworks hold sequencing errors
Measure: polyreactivity (PSR sort gate)

- Biosequence: "QVQLVESGGGLVQAGGSLRLSCAASGRIFYRNAMGWYRQAPGQERELVAGITRGGSTNYADSVKGRFTLSRDNAKNTVFLHMNSLKPEDTAVYYCAASWPSSLTYYYWGQGSQVTVSS"
  Readout value: "low polyreactivity"
- Biosequence: "QVQLVESGGGLVQAGGSLRLSCDDSGRIFGGYGMGWYTQAPGKEGELVAAISARGGSTYYADSVKGRFTISRDNAKNTVYLQMNSLKPEDTEFYYCAAVEASSRGYYDYDYWGQGTQVTVSS"
  Readout value: "low polyreactivity"
- Biosequence: "QVQLVESGGGLVQAGGSLRLSCAASGRIFYWNAMGWYRQAHGKERELVAAISWSGGSTYYADSVKGRFTISRDNAKNTVYLQMNSLKPEDTAVYYCAADGGRRTYYVKYDYWGQGTQVTASS"
  Readout value: "low polyreactivity"
- Biosequence: "QVQLVESGGRLVQAGGSLRLSCAASGLIIDVNTMGWYRQAPGKDRELVAAITGSGGRTYYADSVKGRFTISRDNAKNTVYLQMNSLKPEDSAVYYCNADTSYVGFDFWGQGTQVTVSS"
  Readout value: "low polyreactivity"
- Biosequence: "QVQLVESGGGLVQAGGSRRLSCAASGFTFSQYTRGWYRQAPGKERELVAAISSGSSTYYADSVKGRFTISRDNAKNTVYLQMNSLKPEDTAVYYCAARVGWYTWGYYWGQGTQVTVSS"
  Readout value: "high polyreactivity"
- Biosequence: "QVQLVESGGGLVQAGGSLRLSCAASGFTFDSNAMGWYIQAPGKERELVAAISTGGSTYYADSVKGRFTISRDNAKNTVYLQMNSLKPEDTAVYYCARDPPYPDTWYGYWGQGTQVTVSS"
  Readout value: "low polyreactivity"
- Biosequence: "QVQLVESGGGLVQAGGSLRISCAASGSILTHYAMGWYRQAPGKERELVADINSGGGTSYADSVKGRFTISRDNAKNTVYLQMNSLKPEDTAVYYCAAAWWPYRYPTYYSQFDYWGQGTQVTVSS"
  Readout value: "low polyreactivity"
- Biosequence: "QVQLVESGGGLVQAGGSLRLSCAASGFTFGRYAMGWYRQAPGKERELVATITRSGVNTYYADSVKGRFTISRDNAKNTVYLQMNSLKPEDTAVYYCAAVEIWYWGFTQYEYWGQGTQVTVSS"
  Readout value: "high polyreactivity"
- Biosequence: "QVQLVESGGGLVQAGGSLRLSCAASGRIFAYYAMGWYRQAPGKERELVAAITTNGGGTYYADSVKGRFTISRDNAKNTFYLQMNSLKPEDTGVYYCNAVKQRSSIFDYWGQGTQVTVSS"
  Readout value: "low polyreactivity"
- Biosequence: "QVQLVESGGGLVQAGGSLRLSCAASGFIFATNAMGWYRQAPGKERELVAAISRSGGSTYYADSVKGRFTISRDNAKNTVYLQMYSLKPEDTAVYYCATPRYRYYTIYDYGYWGQGTQVNVSS"
  Readout value: "high polyreactivity"

Looking for the measured polyreactivity (PSR sort gate) of QVQLVESGGGLVQAGCSLRLSCAASGRTFGSYAMGWYRQAPGKERDLVAGITWRDGSTYYADSVKGRFTISRDNAKNTVYFQMNSLKPEDTAVYYCDKEAVRYYLFGMEYWGQGNQVTVSS , can you help?
low polyreactivity

###

experiment: yeast display, Sf9 membrane polyspecificity reagent, FACS + sequencing; frameworks hold sequencing errors
Measure: polyreactivity (PSR sort gate)

Examples with their reported polyreactivity (PSR sort gate) follow.
- Biosequence: "QVQLVETGVGIVQAGGSLRLSCASSGSNCPLYAMGWYRQAPGKEREFVAAIRWIGGSTYYADSVKRRFTNSRDYAKNSVYLQMISLKPVDTAVYYCAAVYVVSAFDYWGQGTQVSVSS"
  polyreactivity (PSR sort gate): "low polyreactivity"
- Biosequence: "QVQLVESGGGLVQAGGSLRLSCAATGSTFDPNVMGWYRQAPGKEREFVAAISSRSGSTSYADSVKGRFTISRDNAKNTVYLQMNCLKPEVTAVYYCAARVYGLPLRMYSWGQGTQVTLSS"
  polyreactivity (PSR sort gate): "high polyreactivity"
- Biosequence: "QVQLVESGGGLVQAGGSLRLSCAASGSICVRNAMGWYRQAPGKERELVAADSVKGRFTISRDNAKNTVYLQMNSLKPEDTAVYYCNKAYIIRRGPIVYYGFDYWGQGTQVTVSS"
  polyreactivity (PSR sort gate): "low polyreactivity"
- Biosequence: "QVQLVESGGGLVQAGGSLRLSCAASGITFYGYAMGWYRQAPGKERELVAAISKSGGSTHYADSVKGRFTISRDNAKNTVYLQMNSLKPEDTAVYYCATEGYYYYTSYDYWGQGTQVTVSS"
  polyreactivity (PSR sort gate): "low polyreactivity"

Please report the recorded polyreactivity (PSR sort gate) for QVQLVESVGGLVQAGGSLRLSCAASGRIFVHYVMGWYRQAPGKERELVAAISRSGGRTYYADSVKGRFTISRDNAKNSVYLQMNSLKPEDTAVYYCATDASTYKYDYWGQGTQVTVSS .
high polyreactivity

Check QDQLVESGGGLVQAGGSLRLSCAASGNIIVEKAMGWYRQAPGTERELVAVSTSGTSTYADSVKGRFTISRDNAKNTVYLQMYSLKPEDTAVYYCNKRQVFVSTGEYEFDYWGQGTQVTVSS too.
low polyreactivity

Param item: QVQLVESGGGLVQAGGSLRLSCAASGRIFTYYAMGWYRQAPGKERELVAAINGRGGRTYYADSVKGRFTISRDNAKNTVYLQMNSLKPEDTAVYYCAARGYAPDTYGYWGQGTQVTVSS
high polyreactivity

Same again, this time with QVHHVESGGGLVQAGGSLRLSCAASGFIIPYYAMGWYRPAPGKERELVAAISWSGSNTYYADSVKGRFTISRDNAKNTVYLQMNSLKPEDTAVYYCAARYSVYYFVQRNGRYGYWGQGTQVTVSS
high polyreactivity

###

test: yeast display, Sf9 membrane polyspecificity reagent, FACS + sequencing; frameworks hold sequencing errors
Measure: polyreactivity (PSR sort gate)

- Biosequence: "QVQLVESGGGIVQAGGSLRLRCAASGSIFRFNAMGWYRQAPGKERDLVAAISSSGSSTYYADSVKGRFTISRDNSKNTVYLQMNSLKPEDTAVYYSAARNSYGNWRYYYWGQGTQVTVSS"
  polyreactivity (PSR sort gate): "high polyreactivity"
- Biosequence: "QVQLVESGGGLVQAGGSLRLICAASGIIFVPNAMGWYSQAPGKERELVAAIDRGGGTTYADSVKGRFTISRDNAKNTVYLQMNSLKPEDTAVYYCAAAWGVGPDQGHDYWGQGTQVTVSS"
  polyreactivity (PSR sort gate): "low polyreactivity"
- Biosequence: "QVQLVESGGGLVQAGGSLRLSCAASGYIFSGYAMGWYRQAPGKEMELVAAISSNGGSTYYADSVKGRFTISRDNAKNTVYLQMNSLKPEDTAVYYCNRGLAARVGRGDYWGQGTQVTVSS"
  polyreactivity (PSR sort gate): "low polyreactivity"
- Biosequence: "QVQLVESGGGLVQAGGSIRLSCAASGSIFRPYVMGWSRPAPGKERELVAAISSRGGDTYYADYVKGRFTISRDYAKNTVNVQMISLKPEDTAVYYCNARYYTSYDYWGQGSQVTVSS"
  polyreactivity (PSR sort gate): "low polyreactivity"
- Biosequence: "QVQLVESGGGLVQAGGSLRLSCAASGRTFYKYAKGWYRQAPGKERELVAAISWSGGSTYYADSVKGRFTISRDNAKNTVYLLMKSLKPEDTAVYYSNRASYPFVKPRYECWGQGTQVTVSS"
  polyreactivity (PSR sort gate): "high polyreactivity"
- Biosequence: "QVQLVESGGGLVQAGGSLRLSCAASGIIFVWYAMGWYRQAPGKERELVAAIRSGGITNYADSVKGRFTISRDNAKNTVYLQMNSLKPEDTAVYYCDAPYRTDTGDDYWGQGTQVTVSS"
  polyreactivity (PSR sort gate): "low polyreactivity"
- Biosequence: "QVQLVESGGGLVQAGGSLRLSCAASGFTFGINAMGWYRQAPGKERELVAAINQSGDRTYYADSVKGRFTISRDNAKNTVYLQMNSLKPEDTAVYYCAGPSYWGGGRYRYGYWGQGTQVTVSS"
  polyreactivity (PSR sort gate): "high polyreactivity"
- Biosequence: "QVQLVESGGGLVQAGGSLRLSCAASGRTLSWYAMGWYRQAPGKEWEFVAAITSSGASTYYADSVKGRFTISRDNANNTVYLQMNSLKPEDTAVYYCNAAWRRVWFNYCGQGTQVTVSS"
  polyreactivity (PSR sort gate): "high polyreactivity"

Which polyreactivity (PSR sort gate) reading was recorded for the sequence QVQLVESGGGLVQAGGSLRLSCAASGRIYGAYAMGWYRQAPGKEMEMVAAITSAGSTLYADSVKGRFTISRDNAMNTVYLQMNSLNPEDTAVYYCAADGIARAYVLFDAYDFLYDYWGQGTQVTVSS ?
low polyreactivity

Another sequence to look at: QVQLVESGGGLVHAGGSLRLSCAASGGNFGKYAMGGYRQAPGKERELVAAITWNGGRTYYADSVKGRFTLSRDNAKNTVYLQMNSLKPEDSAVNYCNARNSHRYVYWGQGTQVTVSS
high polyreactivity

What about QVQLVESGGGLVQAGGSLRLSCAASGRTLEIYTMGLNRQAPGKERELVAAISGGSTYYADSVKGRFTISRDNSKNTVYLQMNSLKPEDTAVYYCAARPYVFRYHRWTVDWRYDYWGQGTQVTVSS ?
low polyreactivity

Entry to check: QVQLVESGGGLLQAGGSLRLSCAASGITFYLYAMGWYRQAPGKVRELVAAITKSGASTYYADSVKGRFTISRDNAKNTVYLQMNSLKPEDTAVYYCAAVLQSGYGYEYWGQGTQVTVSS
high polyreactivity

Next: QVQLVESGVGLVQAGGSLRLSCASSGSIFAYNTMGWYRQAPGKEREFVAAISWLGGSTYYADSVKGRFTISRDNAKNTVYLQMNSLKPEDTAVYYCNARYRTTFYTRRYDYWGQGTQVTVSS
low polyreactivity

Also QVQLVESGGGLVQAGGSLRLSCAASGFIFDWYTMGWYRQAPGKERELVAAITIGGSTDYADSVKGRFTISRDNAKNTVYLLMNSLKPEDTAVYYCNALWYLSGTWYDYWGQGTQVTVSS ?
low polyreactivity
